Please respond with reported Lowest [Lyso] showing synergy for every item in the list.
- System: Salmonella typhi
- assay: Synergy study (checkerboard titration) with hen white lysozyme
- Type: cell-based
- condition summary: lysozyme concentration, combined with the peptide
Ends that are not written are not given here.
The response must be a number in µg/mL with no trailing unit.

Reported Lowest [Lyso] showing synergy for KWKKFIKSLTKSAAKTVVKTAKKPLIV [CM3] : what is it?
250

Item KWKSFIKKLTSAAKKVTTAAKPLTK [CPα1] has what recorded Lowest [Lyso] showing synergy?
125

Any idea what Lowest [Lyso] showing synergy was measured for KWKSFIKKLTKAAKKVVTTAKKPLIV [CM2] ?
31.3

I'd like to know its Lowest [Lyso] showing synergy. The substance in question is H-KWKSFIKKLTSAAKKVVTTAKPLALIS-OH [CM1]
31.3

###

Would you kindly list MIC As for each of these substances?
- Test system: Aeromonas salmonicida (As)
- Assay type: cell-based
- condition summary: Mueller Hinton Broth
Ends that are not written are not given here.
Write the value in µg/mL as a bare number.

Field request: MIC As | item: GWGSFFKKAAHVGKHVGKAALTHYL-NH2 [P-CN]
1

State the recorded MIC As for this entry: KGWGSFFKKAAHVGKHVGKAALTHYL [Peptide P-1]
2

Look up MIC As for this substance: ALWKTMLKKAAHVGKHVGKAALTHYL-NH2 [P-DER]
1

Data request, read-out MIC As, for KGWGSFFKKAAHVGKHVGKAALTHYL-NH2 [Peptide P-1-CN]
1

Request the reported MIC As associated with ALWKTMLKKAAHVGKHVGKAALGAAARRRK [DER-M]
2

Query (substance): SIGSAFKKAAHVGKHVGKAALGAAARRRK [CER-M] ; field requested: MIC As
32

What measured MIC As goes with SIGSAFKKAAHVGKHVGKAALTHYL-NH2 [P-CER] ?
8

###

Kindly supply the reported MIC S. aureus values for the records listed here.
- Tested on: S. aureus
- assay: MIC, broth microdilution assay in polypropylene microtiter trays
- Format: cell-based
- condition summary: average of three separate experiments
Ends that are not written are not given here.

So what does the record say about MIC S. aureus for KWKSFIKKLTSAAKKVTTAAKPLTK [CPα1] ?
>64 µg/mL

Param item = KWKSFIKKLTKAAKKVVTTAKKPLIV [CM2] ; retrieve measured MIC S. aureus.
>64 µg/mL

I am curious: what MIC S. aureus value has been reported for H-KWKSFIKKLTSAAKKVVTTAKPLALIS-OH [CM1] ?
64 µg/mL

Can you share its MIC S. aureus? I mean this substance: KKWKKFIKKIGIGAVLTTPGAKK [CPα3]
>64 µg/mL

Can you share its MIC S. aureus? I mean this substance: KWKKFIKSLTKSAAKTVVKTAKKPLIV [CM3]
>64 µg/mL

###

- System: Vibrio anguillarum (Va)
- Type: cell-based
- condition summary: Mueller Hinton Broth
Ends that are not written are not given here.
For each entry below, report its MIC Va value.
Report only the number, with the unit µg/mL understood.

Give its MIC Va value. Item: SIGSAFKKAAHVGKHVGKAALTHYL-NH2 [P-CER]
64

Would you mind telling me what MIC Va value was observed for KGWGSFFKKAAHVGKHVGKAALTHYL [Peptide P-1] ?
16

Query: MIC Va; subject: KGWGSFFKKAAHVGKHVGKAALTHYL-NH2 [Peptide P-1-CN]
2

Look up MIC Va for this substance: ALWKTMLKKAAHVGKHVGKAALTHYL-NH2 [P-DER]
4

What does the record list as MIC Va for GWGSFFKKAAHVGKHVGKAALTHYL-NH2 [P-CN] ?
2

###

Record form. Attribute: MIC Z61. Fill in for each entry.
- Tested on: Pseudomonas aeruginosa outer membrane barrier altered (Z61)
- Assay type: cell-based
- condition summary: Mueller Hinton Broth
Ends that are not written are not given here.
State just the number; it will be interpreted in µg/mL.

Field: MIC Z61 (Pseudomonas aeruginosa outer membrane barrier altered (Z61)). Entry: KGWGSFFKKAAHVGKHVGKAALTHYL-NH2 [Peptide P-1-CN]
2

Form: Entry = ALWKTMLKKAAHVGKHVGKAALTHYL-NH2 [P-DER] | System = Pseudomonas aeruginosa outer membrane barrier altered (Z61) | MIC Z61 = ____
8

Record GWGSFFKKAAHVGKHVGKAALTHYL-NH2 [P-CN] : what is its MIC Z61 with Pseudomonas aeruginosa outer membrane barrier altered (Z61)?
4

Request - read-out MIC Z61 | tested on Pseudomonas aeruginosa outer membrane barrier altered (Z61) | substance SIGSAFKKAAHVGKHVGKAALGAAARRRK [CER-M]
64

Value wanted: MIC Z61 (Pseudomonas aeruginosa outer membrane barrier altered (Z61)) of entry KGWGSFFKKAAHVGKHVGKAALTHYL [Peptide P-1]
8

Look up MIC Z61 with Pseudomonas aeruginosa outer membrane barrier altered (Z61) for this substance: ALWKTMLKKAAHVGKHVGKAALGAAARRRK [DER-M]
8

###

- Test system: P. aeruginosa (H103)
- assay: Synergy study (checkerboard titration) with hen white lysozyme
- Assay type: cell-based
- Experimental: The biological activity of the peptides can be determined by standard methods known to those of skill in the art, such as Aminimal inhibitory concentration (MIC)≅ assay described in the present examples, whereby the lowest concentration at which no change in OD is observed for a given period of time is recorded as MIC. […] The FIC is calculated by looking at the impact of one antibiotic on the MIC of the other and vice versa. […] As used herein, FIC can be determined as follows: [formula]
Ends that are not written are not given here.
measurement label: FIC for combination of cationic peptide and lysozyme

// returns reported FIC for combination of cationic peptide and lysozyme for input H-KWKSFIKKLTSAAKKVVTTAKPLALIS-OH [CM1]
0.28

Report FIC for combination of cationic peptide and lysozyme for KWKKFIKSLTKSAAKTVVKTAKKPLIV [CM3] please.
0.50

Reported FIC for combination of cationic peptide and lysozyme for KKWKKFIKKIGIGAVLTTPGAKK [CPα3] : what is it?
0.08

Need FIC for combination of cationic peptide and lysozyme, item KWKSFIKKLTKAAKKVVTTAKKPLIV [CM2]
0.37

Which FIC for combination of cationic peptide and lysozyme reading was recorded for the substance KWKSFIKKLTSAAKKVTTAAKPLTK [CPα1] ?
0.28

###

- Test system: P. aeruginosa
- assay: MIC, broth microdilution assay in polypropylene microtiter trays
- Type: cell-based
- condition summary: average of three separate experiments
Ends that are not written are not given here.
measurement label: MIC P. aeruginosa (µg/mL)
Write it as a number; the unit µg/mL goes unstated.

I am curious: what MIC P. aeruginosa value has been reported for KWKSFIKKLTKAAKKVVTTAKKPLIV [CM2] ?
3

# MIC P. aeruginosa lookup, item H-KWKSFIKKLTSAAKKVVTTAKPLALIS-OH [CM1]
5

What does the data say about its MIC P. aeruginosa? Entry: KWKKFIKSLTKSAAKTVVKTAKKPLIV [CM3]
5

###

- Tested on: E. coli
- assay: Synergy study (checkerboard titration) with hen white lysozyme
- Type: cell-based
- condition summary: cationic peptide concentration, combined with lysozyme
Ends that are not written are not given here.
measurement label: Lowest [CP] showing synergy (µg/mL)
Report the figure in µg/mL without appending any unit label.

API: value(readout=Lowest [CP] showing synergy, system=E. coli) for record KWKSFIKKLTKAAKKVVTTAKKPLIV [CM2]
0.081

Find Lowest [CP] showing synergy (E. coli) for the entry KWKKFIKSLTKSAAKTVVKTAKKPLIV [CM3]
0.041

Write down the reported Lowest [CP] showing synergy of KWKSFIKKLTSAAKKVTTAAKPLTK [CPα1] , test system: E. coli.
0.65

Request - read-out Lowest [CP] showing synergy | tested on E. coli | substance KKWKKFIKKIGIGAVLTTPGAKK [CPα3]
0.65

// fetch E. coli Lowest [CP] showing synergy for H-KWKSFIKKLTSAAKKVVTTAKPLALIS-OH [CM1]
0.041

###

I'd appreciate it if you could supply MIC Va values for the items below.
- Tested on: Vibrio anguillarum (Va)
- Format: cell-based
- condition summary: Mueller Hinton Broth
Ends that are not written are not given here.

Entry RQRVEELSKFSKKGAAARRRK [Peptide M-0, reference compound] , system Vibrio anguillarum (Va): what MIC Va was measured?
>64 µg/mL

Please tell me: MIC Va of ALWKTMLKKAAHVGKHVGKAALGAAARRRK [DER-M] , system Vibrio anguillarum (Va)?
>64 µg/mL

Item: SIGSAFKKAAHVGKHVGKAALGAAARRRK [CER-M] Test system: Vibrio anguillarum (Va) Read-out: MIC Va Value: ?
>64 µg/mL

Reference source: patent US6818407B2
